- System: T-47D breast
- Assay Comment: NCI-60 one-dose screen, 48 h (100 = growth as untreated, 0 = no growth, -100 = all killed)
- Stated Conditions: 10 µM unless noted
Compounds without any hit were thinned out: in the full panel of roughly 83,000, 20% have a hit.
Measured Parameter: growth (%)
Answer with a number only, understood to be in %.

Sample answers from the record:
Qu. Return growth for the following compound: "CNC(=O)c1cc(Oc2ccc3nc(NC(=O)Nc4ccc(CN5CCOCC5)c(C(F)(F)F)c4)sc3c2)ccn1"
Ans. 22.7

Qu. Return growth for the following compound: CCC(c1ccc(O)cc1)C(CC)c1ccc(O)c(F)c1 (stereo not given)
Ans. 65.8

Qu. Return growth for the following compound: COc1ccc(C2Nc3ccccc3-n3cccc32)cc1 (stereo not given)
Ans. 84.2

Qu. Return growth for the following compound: "Cc1ccc2c(c1)C(=O)c1c-2c(OCCCN(C)C)nc2ccccc12"
Ans. 63.4

Qu. Return growth for the following compound: "COc1ccc(-n2cc(-c3ccccc3)c3c(SCC(=O)N/N=C/c4ccc([N+](=O)[O-])cc4)ncnc32)cc1"
Ans. 98.7

New cases:
Qu. Return growth for the following compound: "Fc1ccc(Cc2ccc(F)cc2)cc1"
Ans. 101

Qu. Return growth for the following compound: "CC[n+]1ccc2c(c1)C(=O)c1nccc3c1c-2nc1ccccc13"
Ans. 8.59

Qu. Return growth for the following compound: "CN(C)CCCC(=O)Nc1ccc(Cn2nnc3c2C(=O)c2nnn(Cc4ccc(NC(=O)CCCN(C)C)cc4)c2C3=O)cc1"
Ans. -5.44

Qu. Return growth for the following compound: N#CC1=C(N)Oc2c(ccc3ccccc23)C1c1cccs1 (stereo not given)
Ans. 64.3

Qu. Return growth for the following compound: "COc1cc(-c2nc3ccccc3s2)ccc1NC(=O)COc1ccc(Cl)cc1"
Ans. 23

---

- Test system: COLO 205 colon
- Assay Comment: NCI-60 one-dose screen, 48 h (100 = growth as untreated, 0 = no growth, -100 = all killed)
- Stated Conditions: 10 µM unless noted
About 83,000 compounds went through this panel and 20% of them were active in at least one assay; those are over-represented in the sample as a whole.
Measured Parameter: growth (%)
Answer with a number only, understood to be in %.

Sample answers from the record:
Qu. Return growth for the following compound: "c1ccc(CSc2ncnc3nc[nH]c23)nc1"
Ans. 121

Qu. Return growth for the following compound: "CCCCCCCCCc1cc(CN2CCCCC2)c(O)c(CN2CCCCC2)c1"
Ans. 64.3

Qu. Return growth for the following compound: "O=C(CO[N+](=O)[O-])Nc1ccc(C(=O)/C=C/c2ccc(Cl)cc2)cc1"
Ans. 36.1

Qu. Return growth for the following compound: "CCN(C(=O)CN1CCN(c2cc3c(cc2F)c(=O)c(C(=O)O)cn3C2CC2)CC1)c1nc(-c2ccc(OC)cc2)cs1"
Ans. 63.7

Qu. Return growth for the following compound: "CCN(CC)c1ccc(/C=C/C2=[N+](C)c3ccccc3C2(C)C)cc1"
Ans. 4.92

Qu. Return growth for the following compound: "C[C@@]1(N2C(=O)OC[C@@H]2c2ccccc2)C(=O)N([C@H](CC(=O)N2CCC(N3CCCCC3)CC2)C(=O)NCc2cccc(C(F)(F)F)c2)[C@@H]1/C=C/c1ccccc1"
Ans. -67.1

New cases:
Qu. Return growth for the following compound: "CSc1nc(NCCO)c(C#N)c(-c2cccc(N)c2)n1"
Ans. 108

Qu. Return growth for the following compound: "Nc1c(C(=O)Nc2ccccc2)sc2nc3c(cc12)CN(CCc1ccccc1)CC3"
Ans. 116

Qu. Return growth for the following compound: O=C1CC(c2nc3ccccc3s2)CN1C1CCCCC1 (stereo unspecified)
Ans. 101

Qu. Return growth for the following compound: O=C1CC(c2nc3ccccc3[nH]2)CN1C1CCCCC1 (stereo unspecified)
Ans. 102

Qu. Return growth for the following compound: "CCCCCCCCCCNC(=O)CCl"
Ans. 116
